# Subject Of Test: UniProtKB P31645
# Sequence (P31645 whole entry): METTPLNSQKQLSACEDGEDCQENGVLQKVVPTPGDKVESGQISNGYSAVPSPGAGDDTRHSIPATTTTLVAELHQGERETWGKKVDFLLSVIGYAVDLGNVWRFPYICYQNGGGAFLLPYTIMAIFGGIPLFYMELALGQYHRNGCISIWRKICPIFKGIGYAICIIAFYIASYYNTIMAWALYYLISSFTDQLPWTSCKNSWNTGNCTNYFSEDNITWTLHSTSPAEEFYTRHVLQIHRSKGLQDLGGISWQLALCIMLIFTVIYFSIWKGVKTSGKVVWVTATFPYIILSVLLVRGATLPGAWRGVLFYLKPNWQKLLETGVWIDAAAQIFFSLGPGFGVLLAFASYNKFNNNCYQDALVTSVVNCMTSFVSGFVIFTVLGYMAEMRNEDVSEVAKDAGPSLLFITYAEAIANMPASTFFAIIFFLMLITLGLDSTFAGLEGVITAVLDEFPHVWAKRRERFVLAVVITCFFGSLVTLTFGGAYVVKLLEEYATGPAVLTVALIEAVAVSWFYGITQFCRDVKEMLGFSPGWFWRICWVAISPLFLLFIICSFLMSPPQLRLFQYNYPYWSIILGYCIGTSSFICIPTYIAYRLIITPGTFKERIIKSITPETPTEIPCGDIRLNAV
Kindly apply the following: satisfied if IC50 is less than 40 nM, not satisfied in every other case.

Use the examples below as a reference point.
Query: Find out if reported IC50 for CCN(CCCc1c[nH]c2ccc(F)cc12)C1COc2cccc(OC)c2C1 (racemic) is less than 40 nM
Reply: not satisfied

Query: Find out if reported IC50 for "CCN(CCCc1c[nH]c2ccc(F)cc12)[C@@H]1COc2c(F)ccc(C(N)=O)c2C1" is less than 40 nM
Reply: satisfied

---
Query: Find out if reported IC50 for "NC(=O)c1ccc(F)c2c1C[C@H](N(CCCc1c[nH]c3ccc(F)cc13)CC1CC1)CO2" is less than 40 nM
Reply: satisfied

Query: Find out if reported IC50 for "NC(=O)c1ccc(F)c2c1C[C@H](N(CCCc1c[nH]c3ccc(F)cc13)C1CCC1)CO2" is less than 40 nM
Reply: satisfied

Query: Find out if reported IC50 for NC(=O)c1ccc(F)c2c1CC(N(CCc1c[nH]c3ccc(F)cc13)CC1CC1)CO2 (racemic) is less than 40 nM
Reply: not satisfied
